test: Toxicity liver stage against HepG2, at 10uM; format: cell-based; parameters: test concentration 10 uM, cell line HepG2-A16-CD81EGFP; conditions: human, HepG2-A16-CD81EGFP cells; read-out: INHIBITION
Overview of reported cytotoxicity at 10 µM across a group of molecules:

Use the examples below as a reference point.
Cc1ccc(CN(Cc2nc3c(cnn3C)c(=O)[nH]2)C(C)C)s1	-5.48%
CCOCC1CN(C(=O)c2ccoc2C)Cc2cnn(C)c21 (centres undefined)	-2.48%
COc1ccc(N(C)C(=O)C2CN(C)CCO2)cc1Cl (centres undefined)	-46.4%
CC(C(=O)NC1(C#N)CCCCC1)N1CCc2c(ncn2C2CC2)C1 (centres undefined)	7.66%

Report measured cytotoxicity at 10 µM; entry is Cc1ccc(C2CSCCN2C(=O)c2ccncc2)cc1 (centres undefined)
2.96%

Report measured cytotoxicity at 10 µM; entry is c1cncc(N2CCC(c3ccncc3)CC2)c1
2.59%

Report measured cytotoxicity at 10 µM; entry is Cc1nc2c(c(NCc3ccccc3)n1)CCN(C(=O)C1CCC1)CC2
14.3%

Report measured cytotoxicity at 10 µM; entry is COCCC(=O)N1CCCC1c1nc(C)c2c(n1)N(C)C(=O)CC2 (centres undefined)
-1.04%

Report measured cytotoxicity at 10 µM; entry is CN1CC(=O)N(c2cccc(F)c2)CC12CCN(Cc1nccs1)C2 (centres undefined)
2.08%

Report measured cytotoxicity at 10 µM; entry is CC(C)CCN(C(=O)c1cc2c([nH]c1=O)CCCC2=O)C1CC1
-2.98%

Report measured cytotoxicity at 10 µM; entry is CCc1cc(OC)c(OC)cc1C(=O)Nc1cccnc1
4.94%

###

Overview of reported cytotoxicity at 10 µM across a group of compounds:
experiment: Toxicity liver stage against HepG2, at 10uM; format: cell-based; design: test concentration 10 uM, cell line HepG2-A16-CD81EGFP; details: human, HepG2-A16-CD81EGFP cells; read-out: INHIBITION
Output spec: scalar in %, unitless text.

Fc1cnc(N2CCOC3(CCN(Cc4ccsc4)CC3)C2)nc1	2.6
CC(=O)c1ccc(-n2c(C)cn(CCC(=O)NC(N)=O)c2=O)cc1	14.3
Cc1ccc(CN2CCC3(CC2)C(=O)N(C)c2ccccc23)s1	-5.68
CC(C)(C)c1ncc(C(=O)NCCS(N)(=O)=O)s1	-9.58

Report measured cytotoxicity at 10 µM; entry is NC(=O)Cn1ccnc1C1CCCN(Cc2ccccc2OC(F)F)C1 (configuration not stated)
-22

Report measured cytotoxicity at 10 µM; entry is CN1CCN(Cc2ccncc2)Cc2cccnc21
-72.7

Report measured cytotoxicity at 10 µM; entry is Cc1nc(N2CCCC2)nc(C)c1NS(C)(=O)=O
1.61

###

Overview of reported cytotoxicity at 10 µM across a group of compounds:
test: Toxicity liver stage against HepG2, at 10uM; type: cell-based; design: test concentration 10 uM, cell line HepG2-A16-CD81EGFP; details: human, HepG2-A16-CD81EGFP cells; read-out: INHIBITION
Output spec: scalar in %, unitless text.

Use the examples below as a reference point.
O=C(CO)N1C[C@@H]2CC[C@H]1CN(C1Cc3ccccc3C1)C2	-11.3
Cc1nc(C)n(CC2CCCCN2CCCS(C)(=O)=O)n1 (stereo unspecified)	5.02
O=C(O)c1cc(-c2ccncc2)cc(S(=O)(=O)N2CCSCC2)c1	3.26
COc1ccc(Br)c(C(=O)NCCNc2ccc(C(F)(F)F)cn2)c1	12.7
CC(O)CN1CCN(C(=O)c2cc3ccccc3[nH]c2=O)CC1 (stereo unspecified)	0.407

From here, focus on the item given below.
Report measured cytotoxicity at 10 µM; entry is CCc1nc(C)c(C2CC(=O)Nc3c2c(-c2ccccn2)nn3C)[nH]1 (stereo unspecified)
-6.37

Entry source: ChEMBL document CHEMBL4513216
